Tested on: influenza virus (WSN)
Format: cell-based
quantity: WSN HA titer 24H 24 hr
Reply briefly: the number, and no unit.

Solved cases (2 shown):
>>> numeric_readout("O=C(O)CCCCCN1C(=O)c2cccc3c(N4CCCCC4)ccc(c23)C1=O [Compound 8.3]")
0.13
>>> numeric_readout("CCN1C(=O)c2cccc3c([N+](=O)[O-])ccc(c23)C1=O [Compound 8.6]")
0.13

State its WSN HA titer 24H 24 hr for this compound: O=C(O)CCCCCN1C(=O)c2cccc3cccc(c23)C1=O [Compound 8.1]
1.00

====

System: influenza virus (WSN)
Type: cell-based
quantity: WSN HA titer 24H 36 hr
The answer should be a number; do not append a unit.

Check the records and state WSN HA titer 24H 36 hr for `O=C(O)CCCN1C(=O)c2cccc3cc([N+](=O)[O-])cc(c23)C1=O`
0.50

For the molecule `O=C(O)CCCCCN1C(=O)c2cccc3cccc(c23)C1=O` , report WSN HA titer 24H 36 hr.
0.50

Fill in reported WSN HA titer 24H 36 hr for this entry: `O=C(O)CCN1C(=O)c2cccc3c([N+](=O)[O-])ccc(c23)C1=O`
0.50

Identify measured WSN HA titer 24H 36 hr corresponding to `O=C(O)CCN1C(=O)c2cccc3cccc(c23)C1=O`
0.50

Given `O=C(O)CCCN1C(=O)c2cccc3c([N+](=O)[O-])ccc(c23)C1=O` , respond with its WSN HA titer 24H 36 hr.
0.50

Write down WSN HA titer 24H 36 hr measured for item `O=C(O)CCCCCN1C(=O)c2cccc3c([N+](=O)[O-])ccc(c23)C1=O`
0.19

Look up WSN HA titer 24H 36 hr of `O=C(O)CCCCCN1C(=O)c2cccc3c(N4CCCCC4)ccc(c23)C1=O` and report it.
0.13

Indicate the recorded WSN HA titer 24H 36 hr value for this molecule: `CCN1C(=O)c2cccc3c([N+](=O)[O-])ccc(c23)C1=O`
0.25

====

Form field: WSN HA titer 24H 24 hr (one value per entry).
Test system: influenza virus (WSN)
Assay type: cell-based

>>> result("O=C(O)CCN1C(=O)c2cccc3c([N+](=O)[O-])ccc(c23)C1=O")
0.25
>>> result("O=C(O)CCCN1C(=O)c2cccc3cc([N+](=O)[O-])cc(c23)C1=O")
0.50
>>> result("O=C(O)CCN1C(=O)c2cccc3cccc(c23)C1=O")
1.00
>>> result("O=C(O)CCCCCN1C(=O)c2cccc3c([N+](=O)[O-])ccc(c23)C1=O")
0.13

Please look at the following molecule next.
Annotate the molecule `O=C(O)CCCN1C(=O)c2cccc3c([N+](=O)[O-])ccc(c23)C1=O` with its measured WSN HA titer 24H 24 hr.
0.50
